# experimental.protocol: qHTS of pediatric cancer cell lines to identify multiple opportunities for drug repurposing: Primary screen for TC32 cells (AID 1347089); note: nearly all actives have a fitted effect of over 60% in size
# test.settings: TC32 Ewing sarcoma viability, CellTiter-Glo luminescence, 48 h; series mostly up to 45.8 µM
Inconclusive results are not listed. Calls of active or inactive are those of the source. Calls come from the whole dose curve; as a rule, active = well fitted cell-killing curve with a large enough effect; inconclusive = small, poorly fitted or top-dose-only effect; inactive = flat fitted curve, though single readings scatter.
Outcome (select one): 1 = active, 0 = inactive

Recorded test call requested for CC=CCC=CCCC(=O)[C@H]1O[C@@H]1C(N)=O 0

Recorded test call requested for COc1cc2nc(-c3ccc(N4CCN(C)CC4)cc3)nc(NCCN3CCOCC3)c2cc1OC 1

Recorded test call requested for CC[C@H]1OC(=O)[C@H](C)C(=O)[C@H](C)[C@@H](O[C@H]2O[C@H](C)C[C@H](N(C)C)[C@@H]2O)[C@](C)(OC)C[C@@H](C)C(=O)[C@H](C)[C@H]2N(CCCCn3cnc(-c4cccnc4)c3)C(=O)O[C@]12C 0

Recorded test call requested for O=C1NC(=O)C(=Cc2ccc3c(c2)OC(F)(F)O3)S1 0

Recorded test call requested for COc1ccc2c3c1OC1C[C@@H](O)C=C[C@@]31CCN(C)C2 (some centres undefined) 0

Recorded test call requested for NC(=O)c1cccc(-c2cc(Nc3ccc(OC(F)(F)F)cc3)ncn2)c1 0

Recorded test call requested for COC(=O)[C@@H]1[C@H]2C[C@H]3c4[nH]c5ccccc5c4CCN3C[C@@H]2CC[C@@H]1O 0

Recorded test call requested for CC1CCC(C(=O)N(c2cc(C#CC(C)(C)C)sc2C(=O)O)C2CCC(O)CC2)CC1 (centres undefined) 0

Recorded test call requested for CCCCCN(C)CCC(O)(P(=O)(O)O)P(=O)(O)O 0

---

# experimental.protocol: Quantitative High-Throughput drug screen in 47 multiple myeloma cell lines against the NCATS MIPE library collection: OCIMY5_PLB cell viability assay (AID 1918988); note: potency is the fitted concentration of half-maximal effect; nearly all actives have a fitted effect of over 65% in size
# test.settings: OCI-MY5 myeloma viability, ATP luminescence, 48 h; series mostly up to 45.8 µM
Results filed as inconclusive are left out. Calls of active or inactive are those of the source. Calls come from the whole dose curve; as a rule, active = well fitted cell-killing curve with a large enough effect; inconclusive = small, poorly fitted or top-dose-only effect, or effect the other way; inactive = no such curve, though single readings can be large or run the other way.
I'd appreciate it if you could supply Potency values for the items below.

Name the recorded Potency of the item CNC(=O)c1ccccc1Sc1ccc2c(C=Cc3ccccn3)n[nH]c2c1 in your answer. 0.935 µM (active)

Name the recorded Potency of the item Cc1ccc(Nc2cc(-c3cccc(N4C(=O)c5ccccc5C4=O)c3)ncn2)cc1NS(C)(=O)=O in your answer. 20.9 µM (active)

Name the recorded Potency of the item COCCOC(=O)C1=C(C)NC2=C(C(=O)CC(c3ccccc3OC)C2)C1c1cccc(O)c1 (centres undefined) in your answer. 8.33 µM (active)

Name the recorded Potency of the item COc1ccc(C2Sc3ccccc3N(CCN(C)C)C(=O)C2OC(C)=O)cc1 (centres undefined) in your answer. 10.5 µM (active)

Name the recorded Potency of the item CC(C)OC(=O)CCCC=CC[C@@H]1[C@H](C=C[C@@H](O)COc2cccc(C(F)(F)F)c2)[C@H](O)C[C@@H]1O in your answer. 16.6 µM (active)

Name the recorded Potency of the item Cc1c(O)cccc1C(=O)N[C@@H](CSc1ccccc1)[C@H](O)CN1C[C@H]2CCCC[C@@H]2C[C@@H]1C(=O)NC(C)(C)C in your answer. 23.5 µM (active)

Name the recorded Potency of the item CC(C)n1cnc2c(NCCCCCCNC(=O)OC(C)(C)C)nc(NCCO)nc21 in your answer. 29.6 µM (active)

Name the recorded Potency of the item COc1ccc(Cc2nccc3cc(OC)c(OC)cc23)cc1OC in your answer. 16.6 µM (active)

Name the recorded Potency of the item CN(C)Cc1cccc(N=C(c2ccccc2)c2c(O)[nH]c3cc(C(=O)N(C)C)ccc23)c1 in your answer. 10.5 µM (active)
